Experiment: xn = mol fraction of the nth substance listed
Details: 298.15 K; 101 kPa; x1 = 0.0001
electrical conductivity values for the compounds below.

{"compound": "C[NH+](C)C.O=S(=O)([N-]S(=O)(=O)C(F)(F)F)C(F)(F)F + CC#N", "electrical conductivity [S/m]": 0.022}
{"compound": "C[S+](C)C.O=S(=O)([N-]S(=O)(=O)C(F)(F)F)C(F)(F)F + CC#N", "electrical conductivity [S/m]": 0.043}
{"compound": "C[S+](C)C.O=S(=O)([N-]S(=O)(=O)C(F)(F)F)C(F)(F)F + CC1COC(=O)O1", "electrical conductivity [S/m]": 0.009}
{"compound": "C[NH+](C)C.O=S(=O)([N-]S(=O)(=O)C(F)(F)F)C(F)(F)F + O=C1CCCO1", "electrical conductivity [S/m]": 0.005}
{"compound": "C[S+](C)C.O=S(=O)([N-]S(=O)(=O)C(F)(F)F)C(F)(F)F + O=C1CCCO1", "electrical conductivity [S/m]": 0.011}

* * *

Experiment: xn = mol fraction of the nth substance listed
Settings: 298.15 K; 101 kPa; x1 = 0.0003
Recorded electrical conductivity for the following compounds
measured metric: electrical conductivity

{"compound": "C[S+](C)C.O=S(=O)([N-]S(=O)(=O)C(F)(F)F)C(F)(F)F + CC#N", "measured value": "0.148 S/m"}
{"compound": "C[NH+](C)C.O=S(=O)([N-]S(=O)(=O)C(F)(F)F)C(F)(F)F + O=C1CCCO1", "measured value": "0.027 S/m"}
{"compound": "C[S+](C)C.O=S(=O)([N-]S(=O)(=O)C(F)(F)F)C(F)(F)F + CC1COC(=O)O1", "measured value": "0.023 S/m"}
{"compound": "C[S+](C)C.O=S(=O)([N-]S(=O)(=O)C(F)(F)F)C(F)(F)F + O=C1CCCO1", "measured value": "0.025 S/m"}
